- TARGET UNDER TEST: Metabotropic glutamate receptor 2 (Rattus norvegicus)
- Sequence (P31421 whole entry): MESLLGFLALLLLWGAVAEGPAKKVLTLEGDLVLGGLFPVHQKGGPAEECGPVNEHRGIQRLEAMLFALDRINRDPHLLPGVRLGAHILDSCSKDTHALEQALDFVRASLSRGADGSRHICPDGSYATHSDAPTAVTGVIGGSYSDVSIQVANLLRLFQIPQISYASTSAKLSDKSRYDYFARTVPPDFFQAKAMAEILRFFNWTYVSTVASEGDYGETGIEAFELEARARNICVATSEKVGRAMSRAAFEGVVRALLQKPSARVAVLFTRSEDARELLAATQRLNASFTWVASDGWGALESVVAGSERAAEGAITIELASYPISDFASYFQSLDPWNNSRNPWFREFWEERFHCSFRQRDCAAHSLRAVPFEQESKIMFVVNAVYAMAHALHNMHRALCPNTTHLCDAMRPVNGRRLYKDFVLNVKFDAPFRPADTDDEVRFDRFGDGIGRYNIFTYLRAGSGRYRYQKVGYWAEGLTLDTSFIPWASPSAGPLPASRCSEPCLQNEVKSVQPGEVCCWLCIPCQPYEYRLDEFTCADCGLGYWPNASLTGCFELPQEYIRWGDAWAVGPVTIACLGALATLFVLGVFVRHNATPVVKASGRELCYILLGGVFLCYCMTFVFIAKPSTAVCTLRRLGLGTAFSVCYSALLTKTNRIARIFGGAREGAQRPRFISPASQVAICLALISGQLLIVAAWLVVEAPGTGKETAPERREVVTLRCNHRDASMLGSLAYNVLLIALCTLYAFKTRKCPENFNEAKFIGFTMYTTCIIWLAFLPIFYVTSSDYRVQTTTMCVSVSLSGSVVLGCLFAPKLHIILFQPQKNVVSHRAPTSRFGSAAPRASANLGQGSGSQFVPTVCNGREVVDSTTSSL
- PROCEDURE SUMMARY: Inhibition of rat mGlu2 receptor transfected in HEK293 cells coexpressing mouse Galpha15 assessed as decrease in glutamate-induced calcium signaling by fluorescence plate reader analysis in presence of glutamate at EC76 concentration
QUANTITY KIND: IC50

• Cn1c(=O)c2ccc(-c3ccc4ccncc4c3)cc2n2nc(-c3ccccc3)cc12 = > 10000 nM
• COc1cccc(-c2cc3n(C)c(=O)c4ccc(-c5cccc(S(N)(=O)=O)c5)cc4n3n2)c1 = 1390 nM
• Cc1cccc(-c2cc3n(C)c(=O)c4ccc(-c5cccnc5)cc4n3n2)c1 = 1790 nM
• Cn1c(=O)c2ccc(-c3cccnc3)cc2n2nc(-c3cccc(Br)c3)cc12 = > 10000 nM
• Cn1c(=O)c2ccc(-c3cccc(S(N)(=O)=O)c3)cc2n2nc(-c3ccc(F)cc3)cc12 = 3950 nM
• Cn1c(=O)c2ccc(-c3cccc(S(N)(=O)=O)c3)cc2n2nc(-c3ccc(Cl)cc3)cc12 = 847 nM
• COc1cccc(-c2cc3n(C)c(=O)c4ccc(-c5ccccc5)cc4n3n2)c1 = > 10000 nM

====

- TARGET UNDER TEST: Metabotropic glutamate receptor 2 (Rattus norvegicus) (UniProt P31421)
- Sequence (P31421 19-872 limits assumed): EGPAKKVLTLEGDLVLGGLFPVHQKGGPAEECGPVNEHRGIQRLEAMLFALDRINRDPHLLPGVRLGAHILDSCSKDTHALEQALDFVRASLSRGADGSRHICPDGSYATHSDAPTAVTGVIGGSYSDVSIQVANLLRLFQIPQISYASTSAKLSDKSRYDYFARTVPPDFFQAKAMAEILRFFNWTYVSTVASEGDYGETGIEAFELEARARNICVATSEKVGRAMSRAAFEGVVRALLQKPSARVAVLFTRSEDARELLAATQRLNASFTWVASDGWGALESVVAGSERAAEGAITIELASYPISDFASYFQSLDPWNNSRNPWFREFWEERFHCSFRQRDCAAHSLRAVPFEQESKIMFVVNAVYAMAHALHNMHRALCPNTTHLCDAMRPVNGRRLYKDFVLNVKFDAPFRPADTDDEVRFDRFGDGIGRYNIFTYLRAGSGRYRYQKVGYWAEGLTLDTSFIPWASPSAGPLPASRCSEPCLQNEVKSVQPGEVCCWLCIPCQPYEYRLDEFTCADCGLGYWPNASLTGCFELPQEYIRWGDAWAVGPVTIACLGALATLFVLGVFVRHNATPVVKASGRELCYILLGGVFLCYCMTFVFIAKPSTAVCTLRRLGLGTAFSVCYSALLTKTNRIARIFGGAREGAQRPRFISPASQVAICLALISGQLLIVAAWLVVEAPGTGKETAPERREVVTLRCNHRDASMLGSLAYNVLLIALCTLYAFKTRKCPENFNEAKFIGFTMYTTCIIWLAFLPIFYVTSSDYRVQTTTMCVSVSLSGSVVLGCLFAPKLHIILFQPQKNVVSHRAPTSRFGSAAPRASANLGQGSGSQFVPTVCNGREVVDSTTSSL
- PROCEDURE SUMMARY: Positive allosteric modulatory activity at rat mGlu2 receptor transfected in HEK293 cells co-expressing mouse Galpha15 assessed as potentiation of glutamate-dependent calcium signaling at 3 uM by fluorescence plate reader analysis in presence of glutamate at EC20 concentration
- Type: functional, cell-based
Activity calls are given as the source filed them. The rule behind the calls is not given here.
QUANTITY KIND: Activity

* Cn1c(=O)c2ccc(-c3ccccc3)cc2n2nc(-c3ccc(F)cc3)cc12 | inactive
* Cn1c(=O)c2ccc(-c3ccccc3)cc2n2nc(-c3ccccc3)cc12 | inactive
* Cn1c(=O)c2ccc(-c3cccc(S(N)(=O)=O)c3)cc2n2nc(-c3ccccc3)cc12 | inactive

====

- TARGET UNDER TEST: Metabotropic glutamate receptor 3 (Rattus norvegicus, UniProt P31422)
- Sequence (P31422 whole entry): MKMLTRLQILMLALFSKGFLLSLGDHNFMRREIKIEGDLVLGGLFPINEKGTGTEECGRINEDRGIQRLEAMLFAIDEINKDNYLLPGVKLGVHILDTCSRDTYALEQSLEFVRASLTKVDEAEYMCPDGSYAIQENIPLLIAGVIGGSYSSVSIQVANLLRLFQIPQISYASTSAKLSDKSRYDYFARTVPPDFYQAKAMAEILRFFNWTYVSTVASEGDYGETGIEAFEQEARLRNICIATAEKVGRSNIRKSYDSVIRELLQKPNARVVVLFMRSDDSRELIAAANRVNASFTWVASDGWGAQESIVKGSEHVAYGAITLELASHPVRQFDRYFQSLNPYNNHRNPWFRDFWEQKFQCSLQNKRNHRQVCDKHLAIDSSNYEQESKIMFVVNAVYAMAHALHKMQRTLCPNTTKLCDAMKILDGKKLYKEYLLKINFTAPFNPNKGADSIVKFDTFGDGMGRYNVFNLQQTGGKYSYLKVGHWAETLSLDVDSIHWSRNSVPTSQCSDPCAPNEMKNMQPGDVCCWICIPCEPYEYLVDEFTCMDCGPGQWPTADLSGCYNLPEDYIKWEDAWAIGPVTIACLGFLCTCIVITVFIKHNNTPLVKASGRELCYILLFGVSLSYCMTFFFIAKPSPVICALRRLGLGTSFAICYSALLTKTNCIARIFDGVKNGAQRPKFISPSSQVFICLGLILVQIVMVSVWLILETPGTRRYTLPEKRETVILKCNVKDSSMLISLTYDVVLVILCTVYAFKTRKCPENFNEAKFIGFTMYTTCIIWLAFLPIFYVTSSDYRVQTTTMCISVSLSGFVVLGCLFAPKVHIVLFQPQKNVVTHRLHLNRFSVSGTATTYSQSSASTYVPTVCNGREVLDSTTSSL
- PROCEDURE SUMMARY: Inhibition of rat mGlu3 receptor transfected in HEK293 cells coexpressing mouse Galpha15 assessed as decrease in glutamate-induced calcium signaling by fluorescence plate reader analysis in presence of glutamate at EC87 concentration
Let's look at some molecules and their measured IC50.
QUANTITY KIND: IC50

• COc1cccc(-c2cc3n(C)c(=O)c4ccc(-c5ccccc5)cc4n3n2)c1 = > 10 µM
• Cn1c(=O)c2ccc(-c3cccc(S(N)(=O)=O)c3)cc2n2nc(-c3cccc(F)c3)cc12 = > 10 µM
• Cc1ccc2c(=O)n(C)c3cc(-c4ccc(F)cc4)nn3c2c1 = > 10 µM
